Taken from patent US10519114B2.

biological target: rat δ (C6-DOR) opioid receptor (Rattus norvegicus); construct: expressed in transfected cells; assay: Radioligand binding assay, [3H]diprenorphine displacement, DOR; settings: displacement of 0.2 nM [3H]diprenorphine, C6-DOR membranes; mean ± standard error
Sequence (P33533 whole entry): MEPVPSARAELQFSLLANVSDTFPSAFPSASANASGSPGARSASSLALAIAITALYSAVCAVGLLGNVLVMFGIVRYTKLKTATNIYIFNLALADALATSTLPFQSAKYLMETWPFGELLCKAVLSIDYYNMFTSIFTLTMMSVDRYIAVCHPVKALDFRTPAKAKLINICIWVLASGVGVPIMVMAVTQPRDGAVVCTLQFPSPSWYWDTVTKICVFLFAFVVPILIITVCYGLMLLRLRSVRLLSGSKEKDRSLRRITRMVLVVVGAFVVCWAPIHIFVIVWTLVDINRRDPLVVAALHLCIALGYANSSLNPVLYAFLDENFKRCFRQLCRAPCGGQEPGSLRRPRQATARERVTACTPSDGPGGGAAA
Measured property: Ki

Recorded results for 6 compounds are shown here.
[
  {
    "Cpd smiles": "Cc1cc(O)cc(C)c1C[C@H](N)C(=O)N[C@@H]1CCCc2ccc(-c3ccccc3)cc21",
    "Observed value": "3.99 nM"
  },
  {
    "Cpd smiles": "CCCC(=O)N1CC[C@@H](NC(=O)[C@@H](N)Cc2c(C)cc(O)cc2C)c2cc(CC3Cc4ccccc4C3)ccc21",
    "Observed value": "0.38 nM"
  },
  {
    "Cpd smiles": "Cc1cc(O)cc(C)c1C[C@H](N)C(=O)N[C@@H]1CCS(=O)(=O)c2ccc(Cc3ccccc3)cc21",
    "Observed value": "2.34 nM"
  },
  {
    "Cpd smiles": "CC(=O)N1CC[C@@H](NC(=O)[C@@H](N)Cc2c(C)cc(O)cc2C)c2cc(Cc3ccccc3)cc(Br)c21",
    "Observed value": "1.35 nM"
  },
  {
    "Cpd smiles": "CCCCCc1ccc2c(c1)[C@H](NC(=O)[C@@H](N)Cc1c(C)cc(O)cc1C)CCN2",
    "Observed value": "8.81 nM"
  },
  {
    "Cpd smiles": "Cc1cc(O)cc(C)c1C[C@H](N)C(=O)N[C@@H]1CCNc2c(CN3CCNCC3)cc(Cc3ccccc3)cc21",
    "Observed value": "22 nM"
  }
]

// below: Ki requested for another compound
// output Ki; input `Cc1cc(O)cc(C)c1C[C@H](N)C(=O)N[C@@H]1CCNc2c(CN3CCOCC3)cc(Cc3ccccc3)cc21` ; system rat δ (C6-DOR) opioid receptor (Rattus norvegicus)
2.61 nM

====

molecular target: rat μ (C6-MOR) opioid receptor (Rattus norvegicus, UniProt P33535); construct: expressed in transfected cells; experiment: Stimulation of [35S]GTPγS binding, MOR; format: biochemical; details: [35S]GTPγS maximal stimulation compared with 10 μM standard DAMGO
Sequence (P33535 whole entry): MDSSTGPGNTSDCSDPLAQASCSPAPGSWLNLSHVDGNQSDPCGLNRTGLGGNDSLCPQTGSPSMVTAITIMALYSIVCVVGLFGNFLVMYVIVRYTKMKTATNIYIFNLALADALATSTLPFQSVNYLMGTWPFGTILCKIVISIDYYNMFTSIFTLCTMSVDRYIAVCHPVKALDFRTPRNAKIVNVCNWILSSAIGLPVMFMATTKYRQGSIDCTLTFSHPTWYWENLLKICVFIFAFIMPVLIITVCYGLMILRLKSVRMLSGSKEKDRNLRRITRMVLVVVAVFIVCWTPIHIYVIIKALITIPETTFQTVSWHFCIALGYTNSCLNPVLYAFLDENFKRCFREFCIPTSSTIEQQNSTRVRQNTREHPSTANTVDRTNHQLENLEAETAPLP
// returns No unless Emax is strictly below 40%, in which case Yes

Known results for molecules:
[
  {
    "Cpd smiles": "Cc1cc(O)cc(C)c1C[C@H](N)C(=O)N(C1CC1)[C@@H]1CCNc2ccc(Cc3ccccc3)cc21",
    "Qualitative label": "Yes"
  },
  {
    "Cpd smiles": "CC(=O)N1CC[C@@H](NC(=O)[C@@H](N)Cc2c(C)cc(O)cc2C)c2cccc(Cc3ccccc3)c21",
    "Qualitative label": "Yes"
  },
  {
    "Cpd smiles": "Cc1cc(O)cc(C)c1C[C@H](N)C(=O)N[C@@H]1CCNc2ccc(CN3CCc4ccc(F)cc4C3)cc21",
    "Qualitative label": "No"
  }
]

Does the reported Emax of `CCCC(=O)N1CC[C@@H](NC(=O)[C@@H](N)Cc2c(C)cc(O)cc2C)c2cc(CC3Cc4ccccc4C3)ccc21` stay below 40%?
No

Lab note: confirm whether the reported Emax for this molecule is below 40%, equality not counting. molecule: `N[C@@H](Cc1ccc(Cl)cc1Cl)C(=O)N[C@@H]1CCNc2ccc(Cc3ccccc3)cc21`
Yes

Would you kindly verify if Emax of `CCOC(=O)c1cc(Cc2ccccc2)cc2c1NCC[C@H]2NC(=O)[C@@H](N)Cc1c(C)cc(O)cc1C` is strictly less than 40%?
No

====

A short record of Ki observed with UniProtKB P33535 follows.
Respond with the bare value in nM.

The examples below pair each entry with its known result.
[
  {
    "Compound": "Cc1cc(O)cc(C)c1C[C@H](N)C(=O)N[C@@H]1CCNc2ccc(S(=O)(=O)c3ccccc3)cc21",
    "Ki / nM": 3.01
  },
  {
    "Compound": "Cc1cc(O)cc(C)c1C[C@H](N)C(=O)N[C@@H]1CC[C@@H](C)c2ccc(Cc3ccccc3)cc21",
    "Ki / nM": 0.32
  },
  {
    "Compound": "Cc1cc(O)cc(C)c1C[C@H](N)C(=O)N[C@@H]1CCNc2c(CN3CCN(C(=O)[C@@H](N)Cc4c(C)cc(O)cc4C)CC3)cc(Cc3ccccc3)cc21",
    "Ki / nM": 0.31
  },
  {
    "Compound": "CCOC(=O)c1cc(Cc2ccccc2)cc2c1NCC[C@H]2NC(=O)[C@@H](N)Cc1c(C)cc(O)cc1C",
    "Ki / nM": 1.01
  },
  {
    "Compound": "CC(=O)N1CC[C@@H](NC(=O)[C@@H](N)Cc2c(C)cc(O)cc2C)c2cccc(Cc3ccccc3)c21",
    "Ki / nM": 92.4
  },
  {
    "Compound": "Cc1cc(O)cc(C)c1C[C@H](N)C(=O)N[C@@H]1CCN2CCCc3cc(Cc4ccccc4)cc1c32",
    "Ki / nM": 0.39
  },
  {
    "Compound": "Cc1cc(O)cc(C)c1C[C@H](N)C(=O)N[C@@H]1CCC(C)(C)c2ccc(Cc3ccccc3)cc21",
    "Ki / nM": 0.36
  },
  {
    "Compound": "Cc1cc(O)cc(C)c1C[C@H](N)C(=O)N[C@@H]1CCCc2ccc(-c3cccc4ccccc34)cc21",
    "Ki / nM": 5.44
  },
  {
    "Compound": "Cc1cc(O)cc(C)c1C[C@H](N)C(=O)N[C@@H]1CCNc2ccc(CN3CCC4(CCCCC4)CC3)cc21",
    "Ki / nM": 0.22
  },
  {
    "Compound": "CCCc1cc(Br)cc2c1NCC[C@H]2NC(=O)[C@@H](N)Cc1c(C)cc(O)cc1C",
    "Ki / nM": 21.7
  }
]

Input CC(=O)N1CC[C@@H](NC(=O)[C@@H](N)Cc2c(C)cc(O)cc2C)c2cc(CC3Cc4ccccc4C3C)ccc21 (stereo partly shown) , output reported Ki.
0.28

Consider the compound `CCCc1cc(Cc2ccccc2)cc2c1N(C(C)=O)CC[C@H]2NC(=O)[C@@H](N)Cc1c(C)cc(O)cc1C` and give its recorded Ki.
0.35

Determine from records and report Ki for `CC(=O)N1CC[C@@H](NC(=O)[C@@H](N)Cc2c(C)cc(O)cc2C)c2cc(Oc3ccccc3)ccc21`
0.1

====

Reported Emax values are given for each entry in this list.
Biological target: rat μ (C6-MOR) opioid receptor (Rattus norvegicus, UniProt P33535)
Construct: expressed in transfected cells
Assay: Stimulation of [35S]GTPγS binding, MOR
Assay type: biochemical
Conditions: [35S]GTPγS maximal stimulation compared with 10 μM standard DAMGO
Description: In Vitro Pharmacology-Cell Lines and Membrane Preparations. All tissue culture reagents were purchased from Gibco Life Sciences (Grand Island, N.Y., U.S.). […] Protein concentration was determined via Bradford assay using bovine serum albumin as the standard. Stimulation of [^35S]GTPyS Binding. […] The reaction was terminated by rapidly filtering through GF/C filters and washing 10 times with GTPyS buffer, and retained radioactivity was measured as described above. […]
Numeric answer only, unit % assumed.

// worked examples, Emax included
[
  {
    "Molecule": "Cc1cc(O)cc(C)c1C[C@H](N)C(=O)N[C@@H]1CCNc2ccc(S(=O)(=O)c3ccccc3)cc21 [Compound 1052]",
    "Measurement units": "%",
    "Emax": 68.9
  },
  {
    "Molecule": "CC(=O)N1CC[C@@H](NC(=O)[C@@H](N)Cc2c(C)cc(O)cc2C)c2cc(Oc3ccc(Cl)cc3)ccc21 [Compound 1026]",
    "Measurement units": "%",
    "Emax": 61.2
  },
  {
    "Molecule": "Cc1cc(O)cc(C)c1C[C@H](N)C(=O)N[C@@H]1CCNc2c(Cc3ccccc3)cc(Cc3ccccc3)cc21 [Compound 1041]",
    "Measurement units": "%",
    "Emax": 73
  },
  {
    "Molecule": "CC(=O)N1CC[C@@H](NC(=O)[C@@H](N)Cc2c(C)cc(O)cc2C)c2cc(CC3Cc4ccccc4C3C)ccc21 (some centres unmarked) [Compound 1125]",
    "Measurement units": "%",
    "Emax": 69.5
  }
]

Input COc1cc(Cl)c(C[C@H](N)C(=O)N[C@@H]2CCNc3ccc(Cc4ccccc4)cc32)c(Cl)c1 [Compound 1021] , output reported Emax.
34.8

Answer with reported Emax of Cc1cc(O)cc(C)c1C[C@H](N)C(=O)N[C@@H]1CCCc2ccc(-c3ccccc3)cc21 [Compound 1117]
28.7

Consider the molecule Cc1cc(O)cc(C)c1C[C@H](N)C(=O)N[C@@H]1CCNc2ccc(Sc3ccccc3)cc21 [Compound 1053] and give its recorded Emax.
51.6
